Provide the recorded EC50 for the entries that follow.
- targetOfAssay: Mu-type opioid receptor (Homo sapiens, UniProt P35372)
- Sequence (P35372 whole entry): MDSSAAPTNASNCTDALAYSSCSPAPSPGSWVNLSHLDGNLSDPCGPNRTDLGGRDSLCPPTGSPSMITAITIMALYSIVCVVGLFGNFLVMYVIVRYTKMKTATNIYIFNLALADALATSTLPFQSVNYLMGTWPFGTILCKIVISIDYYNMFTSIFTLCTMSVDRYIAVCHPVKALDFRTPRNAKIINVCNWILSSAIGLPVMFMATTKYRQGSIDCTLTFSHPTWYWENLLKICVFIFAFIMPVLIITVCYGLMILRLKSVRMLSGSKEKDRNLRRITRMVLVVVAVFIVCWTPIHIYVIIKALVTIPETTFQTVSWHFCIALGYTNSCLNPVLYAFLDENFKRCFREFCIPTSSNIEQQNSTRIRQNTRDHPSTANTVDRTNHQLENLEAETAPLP
- experimentSummary: Agonist activity at human mu-opioid receptor expressed in CHO cells assessed as stimulation of [35S]GTPgammaS binding after 60 mins by scintillation counting
Give bare numbers, in nM.

Record excerpt, results attached:
What EC50 value was documented for this molecule, CO[C@@]12CCCC[C@@]13CCN(CC1CCC1)[C@@H]2Cc1ccc(OC(=O)CCCCCCCCC(=O)Oc2ccc4c(c2)[C@@]25CCCC[C@@]2(OC)[C@@H](C4)N(CC2CCC2)CC5)cc13 ?
1.8

Sample C=CCN1CC[C@]23c4c5ccc(OC(=O)CCCCCCCCC(=O)Oc6ccc7c(c6)[C@@]68CCCC[C@@]6(OC)[C@@H](C7)N(CC6CCC6)CC8)c4O[C@H]2C(=O)CC[C@@]3(O)[C@H]1C5 — what was its EC50?
10

Sample c1c2c(cc3sc(NCCCCCCCCCCNc4nc5cc6c(cc5s4)C[C@@H]4[C@@H]5CCCC[C@]65CCN4CC4CC4)nc13)C[C@@H]1[C@@H]3CCCC[C@]23CCN1CC1CC1 — what was its EC50?
22

Given the entry CO[C@@]12CCCC[C@@]13CCN(CC1CCC1)[C@@H]2Cc1ccc(OC(=O)CCCCCCCCC(=O)OCc2ccccc2)cc13 , report its measured EC50.
1.7

***
Quick one: EC50 for O=C(CCCCCCCCC(=O)Nc1nc2cc3c(cc2s1)C[C@@H]1[C@@H]2CCCC[C@]32CCN1CC1CC1)Nc1nc2cc3c(cc2s1)C[C@@H]1[C@@H]2CCCC[C@]32CCN1CC1CC1 ?
130
